System: D. rerio embryos
experiment.summary: D. rerio embryotoxicity assay, direct application of ring-open photoform
Format: in vivo, Danio rerio
measurement.parameters: direct application of 1 or ring-open photoform; zebrafish embryos at 3 dpf; 1 h incubation; final DMSO 0.2%; ambient light; 12–15 or 18–20 embryos; value ± STD
Starred links: 1 amine or outer side, 2 acyl side, 3 side chain; linkers in the order of their positions; H or OH if unused. Positions of bridges follow the written chain, without caps; N, C: chain ends. Non-standard residues stand in square brackets, D forms with d. Residues, ends and D or L forms follow the SMILES beside them. X2 = Cc1sc(C(=O)[C@@H]2CCCN2[*:2])cc1C1=C(c2cc(C(=O)[*:1])sc2C)CCC1; Leu(3R-OH) = CC(C)[C@@H](O)[C@H](N)C(=O)O; NMeL = CN[C@@H](CC(C)C)C(=O)O; Orn = NCCC[C@H](N)C(=O)O
LD50 (open)^1h by entry:
reported.metric: LD50 (open)^1h (µg/mL)

>  <compound>
Cc1sc2cc1C1=C(CCC1)c1cc(sc1C)C(=O)[C@@H]1CCCN1C(=O)[C@H](C)NC(=O)[C@H](CCCN)NC(=O)[C@H](C(C)C)NC(=O)[C@@H]1CCCN1C(=O)[C@@H](Cc1ccccc1)NC(=O)[C@H](CC(C)C)NC(=O)[C@H](CCCN)NC(=O)[C@H](C(C)C)NC2=O [Peptide 3]

>  <test.result>
9.3

$$$$
>  <compound>
Cc1sc2cc1C1=C(CCC1)c1cc(sc1C)C(=O)[C@@H]1CCCN1C(=O)[C@H](CC(C)C)NC(=O)[C@H](CCCN)NC(=O)[C@H](C(C)C)NC(=O)[C@@H]1CCCN1C(=O)[C@@H](Cc1ccccc1)NC(=O)[C@H](CC(C)C)NC(=O)[C@H](CCCN)NC(=O)[C@H](CCCN)NC2=O [Peptide 5]

>  <test.result>
4.8

$$$$
>  <compound>
CC(C)C[C@@H]1NC(=O)[C@H](CCCN)NC(=O)[C@H](C(C)C)NC(=O)[C@@H]2CCCN2C(=O)[C@@H](Cc2ccccc2)NC(=O)[C@H](CC(C)C)NC(=O)[C@H](CCCN)NC(=O)[C@H](C(C)C)NC(=O)[C@@H]2CCCN2C(=O)[C@@H](Cc2ccccc2)NC1=O [Peptide 1, gramicidin S, reference compound] (cyclo(L[dF]PV[Orn]L[dF]PV[Orn]))

>  <test.result>
2.8

$$$$
>  <compound>
Cc1sc2cc1C1=C(CCC1)c1cc(sc1C)C(=O)[C@@H]1CCCN1C(=O)[C@H](C(C)C)NC(=O)[C@H](CCCN)NC(=O)[C@H]([C@H](O)C(C)C)NC(=O)[C@@H]1CCCN1C(=O)[C@@H](Cc1ccccc1)NC(=O)[C@H](C(C)C)NC(=O)[C@H](CCCN)NC(=O)[C@H](C(C)C)NC2=O [Peptide 13] (V[Orn]V[dF]P[Leu(3R-OH)][Orn]V; linker N-C via X2)

>  <test.result>
4.8

$$$$
>  <compound>
CC[C@H](C)[C@@H]1NC(=O)c2cc(c(C)s2)C2=C(CCC2)c2cc(sc2C)C(=O)[C@@H]2CCCN2C(=O)[C@H]([C@@H](C)CC)NC(=O)[C@H](CCCN)NC(=O)[C@H](CC(C)C)NC(=O)[C@H](CC(C)C)N(C)C(=O)[C@@H](Cc2ccccc2)NC(=O)[C@H]([C@@H](C)CC)NC(=O)[C@H](CCCN)NC1=O [Peptide 10] (I[Orn]I[dF][NMeL]L[Orn]I; linker N-C via X2)

>  <test.result>
1.3

$$$$
>  <compound>
Cc1sc2cc1C1=C(CCC1)c1cc(sc1C)C(=O)[C@@H]1CCCN1C(=O)[C@H]([C@H](O)C(C)C)NC(=O)[C@H](CCCN)NC(=O)[C@H](C(C)C)NC(=O)[C@@H]1CCCN1C(=O)[C@@H](Cc1ccccc1)NC(=O)[C@H](C(C)C)NC(=O)[C@H](CCCN)NC(=O)[C@H](C(C)C)NC2=O [Peptide 14]

>  <test.result>
8.1

$$$$

----------
Tested on: D. rerio embryos
experiment.summary: D. rerio embryotoxicity "photoactivation" assay (ring-closed photoform in darkness, then in situ photoconversion)
Assay type: in vivo, Danio rerio
measurement.parameters: after 24 h with ring-closed form in dark, in situ illumination 10 min, λ = 570 nm, approx. 20 mW/cm^2; mortality 24 h after illumination; embryos 5 dpf at readout; value ± STD
Description: To establish the assay for screening the photoswitchable peptides, we first studied the toxicity of our prototype 2 by varying the assay conditions. The parent peptide GS 1 was used as a control. […] We measured the doses causing the death of 50% embryos (LD50). We tested two different assay variations: in one version, the LD50(open) was determined after direct application of 1 or of the ring-open form of 2. […]
Starred links: 1 amine or outer side, 2 acyl side, 3 side chain; linkers in the order of their positions; H or OH if unused. Positions of bridges follow the written chain, without caps; N, C: chain ends. Non-standard residues stand in square brackets, D forms with d. Residues, ends and D or L forms follow the SMILES beside them. X2 = Cc1sc(C(=O)[C@@H]2CCCN2[*:2])cc1C1=C(c2cc(C(=O)[*:1])sc2C)CCC1; Leu(3R-OH) = CC(C)[C@@H](O)[C@H](N)C(=O)O; Orn = NCCC[C@H](N)C(=O)O

>  <compound>
Cc1sc2cc1C1=C(CCC1)c1cc(sc1C)C(=O)[C@@H]1CCCN1C(=O)[C@H](C(C)C)NC(=O)[C@H](CCCN)NC(=O)[C@H]([C@H](O)C(C)C)NC(=O)[C@@H]1CCCN1C(=O)[C@@H](Cc1ccccc1)NC(=O)[C@H](C(C)C)NC(=O)[C@H](CCCN)NC(=O)[C@H](C(C)C)NC2=O [Peptide 13] (V[Orn]V[dF]P[Leu(3R-OH)][Orn]V; linker N-C via X2)

>  <measurement.units>
µg/mL

>  <LD50 (opened)^24h>
3.4

$$$$
>  <compound>
Cc1sc2cc1C1=C(CCC1)c1cc(sc1C)C(=O)[C@@H]1CCCN1C(=O)[C@H](C)NC(=O)[C@H](CCCN)NC(=O)[C@H](C(C)C)NC(=O)[C@@H]1CCCN1C(=O)[C@@H](Cc1ccccc1)NC(=O)[C@H](CC(C)C)NC(=O)[C@H](CCCN)NC(=O)[C@H](C)NC2=O [Peptide 4] (A[Orn]L[dF]PV[Orn]A; linker N-C via X2)

>  <measurement.units>
µg/mL

>  <LD50 (opened)^24h>
12.9

$$$$
>  <compound>
Cc1sc2cc1C1=C(CCC1)c1cc(sc1C)C(=O)[C@@H]1CCCN1C(=O)[C@H](C)NC(=O)[C@H](CCCN)NC(=O)[C@H](C(C)C)NC(=O)[C@@H]1CCCN1C(=O)[C@@H](Cc1ccccc1)NC(=O)[C@H](CC(C)C)NC(=O)[C@H](CCCN)NC(=O)[C@H](C(C)C)NC2=O [Peptide 3]

>  <measurement.units>
µg/mL

>  <LD50 (opened)^24h>
6.2

$$$$

----------
Test system: D. rerio embryos
experiment.summary: D. rerio embryotoxicity assay, direct application of ring-open photoform
Type: in vivo, Danio rerio
measurement.parameters: direct application of 1 or ring-open photoform; zebrafish embryos at 3 dpf; 24 h incubation; final DMSO 0.2%; ambient light; value ± STD
Starred links: 1 amine or outer side, 2 acyl side, 3 side chain; linkers in the order of their positions; H or OH if unused. Positions of bridges follow the written chain, without caps; N, C: chain ends. Non-standard residues stand in square brackets, D forms with d. Residues, ends and D or L forms follow the SMILES beside them. *: point of attachment. X2 = Cc1sc(C(=O)[C@@H]2CCCN2[*:2])cc1C1=C(c2cc(C(=O)[*:1])sc2C)CCC1; Leu(3R-OH) = CC(C)[C@@H](O)[C@H](N)C(=O)O; X1 = CCCCN([C@@H](CC(C)C)C(=O)[*:2])[*:1]; Isobutyryl = CC(C)C(=O)*; Orn = NCCC[C@H](N)C(=O)O; Dab = NCC[C@H](N)C(=O)O; NHiPr = CC(C)N*
Please note: LD50 (open)^24h exactly at 3 µg/mL is false (0). Only values below 3 µg/mL get true (1).

>  <compound>
Cc1sc2cc1C1=C(CCC1)c1cc(sc1C)C(=O)[C@@H]1CCCN1C(=O)[C@H]([C@H](O)C(C)C)NC(=O)[C@H](CCCN)NC(=O)[C@H](C(C)C)NC(=O)[C@@H]1CCCN1C(=O)[C@@H](Cc1ccccc1)NC(=O)[C@H](C(C)C)NC(=O)[C@H](CCCN)NC(=O)[C@H](C(C)C)NC2=O [Peptide 14]

>  <experimental.system>
D. rerio embryos

>  <label.value>
true (1)

$$$$
>  <compound>
Cc1sc2cc1C1=C(CCC1)c1cc(sc1C)C(=O)[C@@H]1CCCN1C(=O)[C@H](C(C)C)NC(=O)[C@H](CCCCN)NC(=O)[C@H](C(C)C)NC(=O)[C@@H](CCCCN)NC(=O)[C@H](CC(C)C)NC(=O)[C@@H]1CCCN1C(=O)[C@@H](Cc1ccccc1)NC(=O)[C@H](C(C)C)NC(=O)[C@H](CCCCN)NC(=O)[C@H](CC(C)C)NC(=O)[C@H](CCCCN)NC(=O)[C@H](C(C)C)NC2=O [Peptide 17] (VKLKV[dF]PL[dK]VKV; linker N-C via X2)

>  <experimental.system>
D. rerio embryos

>  <label.value>
false (0)

$$$$
>  <compound>
CC(C)C[C@@H]1NC(=O)[C@H](CCCN)NC(=O)[C@H](C(C)C)NC(=O)[C@@H]2CCCN2C(=O)[C@@H](Cc2ccccc2)NC(=O)[C@H](CC(C)C)NC(=O)[C@H](CCCN)NC(=O)[C@H](C(C)C)NC(=O)[C@@H]2CCCN2C(=O)[C@@H](Cc2ccccc2)NC1=O [Peptide 1, gramicidin S, reference compound] (cyclo(L[dF]PV[Orn]L[dF]PV[Orn]))

>  <experimental.system>
D. rerio embryos

>  <label.value>
true (1)

$$$$
>  <compound>
Cc1sc2cc1C1=C(CCC1)c1cc(sc1C)C(=O)[C@@H]1CCCN1C(=O)[C@H](C(C)C)NC(=O)[C@H](CCCN)NC(=O)[C@H]([C@H](O)C(C)C)NC(=O)[C@@H]1CCCN1C(=O)[C@@H](Cc1ccccc1)NC(=O)[C@H](C(C)C)NC(=O)[C@H](CCCN)NC(=O)[C@H](C(C)C)NC2=O [Peptide 13] (V[Orn]V[dF]P[Leu(3R-OH)][Orn]V; linker N-C via X2)

>  <experimental.system>
D. rerio embryos

>  <label.value>
true (1)

$$$$
>  <compound>
Cc1sc2cc1C1=C(CCC1)c1cc(sc1C)C(=O)[C@@H]1CCCN1C(=O)[C@H](C(C)C)NC(=O)[C@H](CCCN)NC(=O)[C@H](C(C)C)NC(=O)[C@@H]1CCCN1C(=O)[C@@H](Cc1ccccc1)NC(=O)[C@H](C(C)C)NC(=O)[C@H](CCCN)NC(=O)[C@H](CC(=O)NC(C)C)NC2=O [Peptide 7] (D(NHiPr)[Orn]V[dF]PV[Orn]V; linker N-C via X2)

>  <experimental.system>
D. rerio embryos

>  <label.value>
false (0)

$$$$
>  <compound>
Cc1sc2cc1C1=C(CCC1)c1cc(sc1C)C(=O)[C@@H]1CCCN1C(=O)[C@H](C(C)C)NC(=O)[C@H](CCCN)NC(=O)[C@H](C(C)C)NC(=O)[C@@H]1CCCN1C(=O)[C@@H](Cc1ccccc1)NC(=O)[C@H](C(C)C)NC(=O)[C@H](CCCN)NC(=O)[C@H](CCNC(=O)C(C)C)NC2=O [Peptide 8] ([Dab](Isobutyryl)[Orn]V[dF]PV[Orn]V; linker N-C via X2)

>  <experimental.system>
D. rerio embryos

>  <label.value>
false (0)

$$$$
>  <compound>
Cc1sc2cc1C1=C(CCC1)c1cc(sc1C)C(=O)[C@@H]1CCCN1C(=O)[C@H](C)NC(=O)[C@H](CCCN)NC(=O)[C@H](C(C)C)NC(=O)[C@@H]1CCCN1C(=O)[C@@H](Cc1ccccc1)NC(=O)[C@H](CC(C)C)NC(=O)[C@H](CCCN)NC(=O)[C@H](C)NC2=O [Peptide 4] (A[Orn]L[dF]PV[Orn]A; linker N-C via X2)

>  <experimental.system>
D. rerio embryos

>  <label.value>
false (0)

$$$$
>  <compound>
CCCCN1C(=O)[C@@H](Cc2ccccc2)NC(=O)[C@H](CC(C)C)NC(=O)[C@H](CCCN)NC(=O)[C@H]([C@@H](C)CC)NC(=O)c2cc(c(C)s2)C2=C(CCC2)c2cc(sc2C)C(=O)[C@@H]2CCCN2C(=O)[C@H](CC(C)C)NC(=O)[C@H](CCCN)NC(=O)[C@H]([C@@H](C)CC)NC(=O)[C@@H]1CC(C)C [Peptide 11] (I[Orn]L[dF][X1]I[Orn]L; linker N-C via X2)

>  <experimental.system>
D. rerio embryos

>  <label.value>
true (1)

$$$$
>  <compound>
Cc1sc2cc1C1=C(CCC1)c1cc(sc1C)C(=O)[C@@H]1CCCN1C(=O)[C@H](C(C)C)NC(=O)[C@H](CCCN)NC(=O)[C@H]([C@H](O)C(C)C)NC(=O)[C@@H]1CCCN1C(=O)[C@@H](Cc1ccccc1)NC(=O)[C@H](C(C)C)NC(=O)[C@H](CCCN)NC(=O)[C@H]([C@H](O)C(C)C)NC2=O [Peptide 15] ([Leu(3R-OH)][Orn]V[dF]P[Leu(3R-OH)][Orn]V; linker N-C via X2)

>  <experimental.system>
D. rerio embryos

>  <label.value>
false (0)

$$$$
>  <compound>
Cc1sc2cc1C1=C(CCC1)c1cc(sc1C)C(=O)[C@@H]1CCCN1C(=O)[C@H](CC(C)C)NC(=O)[C@H](CCCCN)NC(=O)[C@H](C(C)C)NC(=O)[C@H](CCCCN)NC(=O)[C@H](CC(C)C)NC(=O)[C@@H]1CCCN1C(=O)[C@@H](Cc1ccccc1)NC(=O)[C@H](C(C)C)NC(=O)[C@H](CCCCN)NC(=O)[C@H](CC(C)C)NC(=O)[C@H](CCCCN)NC(=O)[C@H](C(C)C)NC2=O [Peptide 16] (VKLKV[dF]PLKVKL; linker N-C via X2)

>  <experimental.system>
D. rerio embryos

>  <label.value>
true (1)

$$$$
>  <compound>
Cc1sc2cc1C1=C(CCC1)c1cc(sc1C)C(=O)[C@@H]1CCCN1C(=O)[C@H](CC(C)C)NC(=O)[C@H](CCCN)NC(=O)[C@H](C(C)C)NC(=O)[C@@H]1CCCN1C(=O)[C@@H](Cc1ccccc1)NC(=O)[C@H](CC(C)C)NC(=O)[C@H](CCCN)NC(=O)[C@H](CCCN)NC2=O [Peptide 5]

>  <experimental.system>
D. rerio embryos

>  <label.value>
false (0)

$$$$
